The entries below come with measured Internalisation – pERK Bias factor values attached.
# assayed_system: hCB2 (Homo sapiens, UniProt P34972)
# Construct: expressed in transfected cells; host or cells: HEK Flp-in
# Sequence (P34972 whole entry): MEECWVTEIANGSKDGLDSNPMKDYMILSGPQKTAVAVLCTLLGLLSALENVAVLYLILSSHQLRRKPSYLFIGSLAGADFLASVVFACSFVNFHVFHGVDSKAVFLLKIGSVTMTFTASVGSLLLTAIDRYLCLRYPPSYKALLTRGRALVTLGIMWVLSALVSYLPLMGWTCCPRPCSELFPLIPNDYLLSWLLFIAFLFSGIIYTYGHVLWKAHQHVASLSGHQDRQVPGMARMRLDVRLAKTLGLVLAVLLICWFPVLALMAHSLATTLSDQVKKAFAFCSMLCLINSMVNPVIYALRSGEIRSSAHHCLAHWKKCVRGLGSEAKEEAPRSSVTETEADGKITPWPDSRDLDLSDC
# assay_comment: Comparison of efficacy/potency and operational-model bias analysis between hCB2 pathways, reference CP 55,940
# Format: cell-based
# assay_context: 10^ΔΔlogR, relative to CP 55,940
Respond numerically, and do not add a unit to the figure.

Reference set (4 entries):
{"compound": "CCOc1nc(NC23CC4CC(CC(C4)C2)C3)nc(N2CCN(CCF)CC2)n1", "Internalisation – pERK Bias factor": 2.2}
{"compound": "CCOc1nc(NC23CC4CC(CC(C4)C2)C3)nc(N2CCN(CCOCCOCCNC(=O)OC(C)(C)C)CC2)n1", "Internalisation – pERK Bias factor": 2.0}
{"compound": "CCOc1nc(NC23CC4CC(CC(C4)C2)C3)nc(N2CCN(CCOCCOCCNC(C)=O)CC2)n1", "Internalisation – pERK Bias factor": 8.6}
{"compound": "CCOc1nc(NC23CC4CC(CC(C4)C2)C3)nc(N2CCN(C)CC2)n1", "Internalisation – pERK Bias factor": 5.7}

Give the observed Internalisation – pERK Bias factor of `CCOc1nc(NC23CC4CC(CC(C4)C2)C3)nc(N2CCNCC2)n1` for hCB2 (Homo sapiens, UniProt P34972). 15.4

Give the observed Internalisation – pERK Bias factor of CCCCCCC(C)(C)c1ccc([C@@H]2C[C@H](O)CC[C@H]2CCCO)c(O)c1 [CP 55,940, reference compound] for hCB2 (Homo sapiens, UniProt P34972). 1.0

* * *

# assayed_system: hCB2 (Homo sapiens, UniProt P34972)
# Construct: expressed in transfected cells; host or cells: HEK Flp-in
# assay_comment: hCB2 internalisation assay (immunocytochemistry of surface receptor), HEK Flp-in hCB2 cells
# Format: cell-based
# assay_context: operational model transduction ratio
test_readout: logR [log(τ/KA)] (±SEM) Internalisation

Give logR [log(τ/KA)] (±SEM) Internalisation for the following molecule: CCOc1nc(NC23CC4CC(CC(C4)C2)C3)nc(N2CCNCC2)n1 [Compound 7] 7.42 (0.26)

Give logR [log(τ/KA)] (±SEM) Internalisation for the following molecule: CCOc1nc(NC23CC4CC(CC(C4)C2)C3)nc(N2CCN(CCOCCOCCNC(C)=O)CC2)n1 [Compound 14] 6.81 (0.23)

Give logR [log(τ/KA)] (±SEM) Internalisation for the following molecule: CCCCCCC(C)(C)c1ccc([C@@H]2C[C@H](O)CC[C@H]2CCCO)c(O)c1 [CP 55,940, reference compound] 8.76 (0.1)

Give logR [log(τ/KA)] (±SEM) Internalisation for the following molecule: CCOc1nc(NC23CC4CC(CC(C4)C2)C3)nc(N2CCN(C)CC2)n1 [Compound 15] 8.92 (0.09)

Give logR [log(τ/KA)] (±SEM) Internalisation for the following molecule: CCOc1nc(NC23CC4CC(CC(C4)C2)C3)nc(N2CCN(CCOCCOCCNC(=O)OC(C)(C)C)CC2)n1 [Compound 10] 7.09 (0.10)

Give logR [log(τ/KA)] (±SEM) Internalisation for the following molecule: CCOc1nc(NC23CC4CC(CC(C4)C2)C3)nc(N2CCN(CCF)CC2)n1 [Compound 16] 8.90 (0.19)

* * *

# assay_comment: physchem
# Assay type: physicochemical
# assay_context: organic solvent or mixture
test_readout: solubility (µM)
Give just the number in µM; leave the unit off.

Give solubility for the following compound: `CCOc1nc(NC23CC4CC(CC(C4)C2)C3)nc(N2CCNCC2)n1` 1000

* * *

# assayed_system: hCB2 (Homo sapiens, UniProt P34972)
# Construct: expressed in transfected cells; host or cells: HEK Flp-in
# assay_comment: Real-time CAMYEL BRET cAMP assay, forskolin-stimulated HEK Flp-in hCB2 cells
# Assay type: cell-based
# assay_context: 5 min post-drug, 5 μM forskolin; 10 and 14 approximate (non-hCB2-mediated effects); read-out: cAMP (5 min) pEC50 (±SEM) (converted)
The entries below come with measured EC50 values attached.
Give just the number in µM; leave the unit off.

{"smiles_string": "CCOc1nc(NC23CC4CC(CC(C4)C2)C3)nc(N2CCN(CCOCCOCCNC(=O)OC(C)(C)C)CC2)n1", "measurement": 0.105}

Give EC50 for the following compound: `CCOc1nc(NC23CC4CC(CC(C4)C2)C3)nc(N2CCN(CCOCCOCCN)CC2)n1` 0.794

Give EC50 for the following compound: `CCOc1nc(NC23CC4CC(CC(C4)C2)C3)nc(N2CCN(CCF)CC2)n1` 0.00282

Give EC50 for the following compound: `CCOc1nc(NC23CC4CC(CC(C4)C2)C3)nc(N2CCNCC2)n1` 0.0851

* * *

# assayed_system: hCB2 (Homo sapiens, UniProt P34972)
# Construct: expressed in transfected cells; host or cells: HEK Flp-in
# assay_comment: Radioligand competition binding with [3H]-CP 55,940 on hCB2-expressing HEK membranes
# assay_context: 10 μM heterologous competition screen; cut-off 60%
test_readout: hCB2 displacement of [3H]-CP 55,940 in 10 μM screen (in words)

{"compound": "CCOc1nc(NC23CC4CC(CC(C4)C2)C3)nc(N2CCN(CCCCCCNC(=O)OC(C)(C)C)CC2)n1 [Compound 9]", "assayed_system": "hCB2 (Homo sapiens, UniProt P34972)", "measurement": "moderate binders"}
{"compound": "CCOc1nc(NC23CC4CC(CC(C4)C2)C3)nc(N2CCN(CCN)CC2)n1 [Compound 11]", "assayed_system": "hCB2 (Homo sapiens, UniProt P34972)", "measurement": "moderate binders"}
{"compound": "CCOc1nc(NC23CC4CC(CC(C4)C2)C3)nc(N2CCN(CCCCCCN)CC2)n1 [Compound 12]", "assayed_system": "hCB2 (Homo sapiens, UniProt P34972)", "measurement": "moderate binders"}

* * *

The entries below come with measured logR [log(τ/KA)] (±SEM) cAMP values attached.
# assayed_system: hCB2 (Homo sapiens, UniProt P34972)
# Construct: expressed in transfected cells; host or cells: HEK Flp-in
# assay_comment: Real-time CAMYEL BRET cAMP assay, forskolin-stimulated HEK Flp-in hCB2 cells
# Type: cell-based
# assay_context: operational model transduction ratio

Give logR [log(τ/KA)] (±SEM) cAMP for the following compound: CCOc1nc(NC23CC4CC(CC(C4)C2)C3)nc(N2CCN(CCOCCOCCNC(C)=O)CC2)n1 [Compound 14] 5.83 (0.23)

Give logR [log(τ/KA)] (±SEM) cAMP for the following compound: CCOc1nc(NC23CC4CC(CC(C4)C2)C3)nc(N2CCN(C)CC2)n1 [Compound 15] 8.12 (0.09)

Give logR [log(τ/KA)] (±SEM) cAMP for the following compound: CCOc1nc(NC23CC4CC(CC(C4)C2)C3)nc(N2CCN(CCOCCOCCNC(=O)OC(C)(C)C)CC2)n1 [Compound 10] 6.90 (0.10)

Give logR [log(τ/KA)] (±SEM) cAMP for the following compound: CCOc1nc(NC23CC4CC(CC(C4)C2)C3)nc(N2CCNCC2)n1 [Compound 7] 7.29 (0.26)

Give logR [log(τ/KA)] (±SEM) cAMP for the following compound: CCCCCCC(C)(C)c1ccc([C@@H]2C[C@H](O)CC[C@H]2CCCO)c(O)c1 [CP 55,940, reference compound] 8.52 (0.02)

Give logR [log(τ/KA)] (±SEM) cAMP for the following compound: CCOc1nc(NC23CC4CC(CC(C4)C2)C3)nc(N2CCN(CCF)CC2)n1 [Compound 16] 8.52 (0.19)

* * *

The entries below come with measured Ki values attached.
# assayed_system: hCB2 (Homo sapiens, UniProt P34972)
# Construct: expressed in transfected cells; host or cells: HEK Flp-in
# assay_comment: Radioligand competition binding with [3H]-CP 55,940 on hCB2-expressing HEK membranes
Reply with the number, then its unit.

{"compound": "CCOc1nc(NC23CC4CC(CC(C4)C2)C3)nc(N2CCN(C)CC2)n1 [Compound 15]", "Ki": "4.27 nM"}

Attention now shifts to the item below.
Give Ki for the following compound: CCOc1nc(NC23CC4CC(CC(C4)C2)C3)nc(N2CCN(CCOCCOCCNC(C)=O)CC2)n1 [Compound 14] 1780 nM

* * *

# assayed_system: hCB2 (Homo sapiens)
# Construct: expressed in transfected cells; host or cells: HEK Flp-in
# assay_comment: hCB2 internalisation assay (immunocytochemistry of surface receptor), HEK Flp-in hCB2 cells
# Format: cell-based
test_readout: EC50 (nM)
Give just the number in nM; leave the unit off.

{"smiles_string": "CCOc1nc(NC23CC4CC(CC(C4)C2)C3)nc(N2CCN(CCOCCOCCNC(C)=O)CC2)n1", "test_readout": "EC50", "measurement": 174}

Attention now shifts to the item below.
Give EC50 for the following compound: `CCOc1nc(NC23CC4CC(CC(C4)C2)C3)nc(N2CCN(C)CC2)n1` 1.23
